# System: Jurkat
# measurement_protocol: Growth inhibition of human Jurkat cells after 72 hrs by MTT assay
# Format: functional
Simple rule here: GI50 less than 30 µM is true (1), otherwise false (0).

structure_string | class_name
Cc1ccc(-c2nn(-c3ccccc3)c(/N=C/N(C)C)c2C=O)cc1 | true (1)
COc1ccc(-n2nc(-c3ccccc3)c(C=O)c2/N=C/N(C)C)cc1 | true (1)
CN(C)/C=N/c1c(C=O)c(-c2ccccc2)nn1-c1ccccc1Cl | true (1)
CN(C)/C(=N/c1cc(-c2ccccc2)nn1-c1ccccc1)c1ccccc1 | false (0)
CN(C)/C=N/c1c(C=O)c(-c2ccc(Cl)cc2)nn1-c1ccccc1 | true (1)
COc1ccc(-c2nn(-c3ccccc3)c(/N=C/N(C)C)c2C=O)cc1 | true (1)
O=Cc1c(-c2ccccc2)nn(-c2ccccc2)c1/N=C/N1CCCCC1 | true (1)
CN(C)/C=N/c1c(C=O)c(-c2ccccc2)nn1-c1cccc([N+](=O)[O-])c1 | false (0)
CN(C)/C=N/c1c(C=O)c(-c2ccccc2)nn1-c1cccc(Cl)c1 | true (1)
O=Cc1c(-c2ccccc2)nn(-c2ccccc2)c1/N=C/N1CCCC1 | false (0)
CN(C)/C=N/c1c(C=O)c(-c2ccccc2)nn1-c1ccccc1 | true (1)
CC/C(=N\c1cc(-c2ccccc2)nn1-c1ccccc1)NC | false (0)
CN(C)/C=N/c1c(C=O)c(-c2ccccc2)nn1-c1ccc(Br)cc1 | true (1)
Cc1cccc(-n2nc(-c3ccccc3)c(C=O)c2/N=C/N(C)C)c1 | true (1)
C/C(=N\c1cc(-c2ccccc2)nn1-c1ccccc1)N(C)C | false (0)
CN/C(C)=N/c1cc(-c2ccccc2)nn1-c1ccccc1 | false (0)
CN(C)/C=N/c1c(C=O)c(C(C)(C)C)nn1-c1ccccc1 | false (0)
CN/C=N/c1cc(-c2ccccc2)nn1-c1ccccc1 | false (0)
